Taken from paper PMC4342888.

biological target: Odorant binding protein 16 (OBP16) (Apis mellifera, UniProt A0ACM8Q9Q1); construct: recombinant mature protein; test: biochemical; settings: IC50 against 2 uM 1-NPN
Attribute: IC50

{"Compound": "CC(C)=CCC/C(C)=C/CO", "Test system": "Odorant binding protein 16 (OBP16) (Apis mellifera, UniProt A0ACM8Q9Q1)", "Measured value": "1100 nM"}

Could you share which IC50 value was measured for CCCCCCCCC(=O)O ? 1100 nM

Same question, COC(=O)c1ccc(O)cc1 [Methyl p-hydroxybenzoate] this time 2500 nM

Same question, COc1ccccc1/C=C/C=O this time 20000 nM

###

Target: Odorant binding protein 16 (OBP16) (Apis mellifera)
Construct: recombinant mature protein
Sequence (A0ACM8Q9Q1 17-135): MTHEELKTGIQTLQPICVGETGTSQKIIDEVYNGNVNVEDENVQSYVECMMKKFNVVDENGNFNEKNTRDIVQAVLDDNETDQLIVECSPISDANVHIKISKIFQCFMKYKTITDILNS
Test: biochemical
Parameters: competitive fluorescence displacement of 2 uM 1-NPN from purified recombinant OBP (2 uM), Tris pH 7.4
Conditions: KD calculated from IC50 of 1-NPN displacement
# strict inequality: Kd < 2000 nM yields class 1, everything else yields class 0

{"Molecule": "CC(C)CC(=O)O [3-Methylbutanoic acid]", "Label class": "class 0"}

Answer whether the molecule CC(=O)CCCCCCCC(=O)O [9-Ketodecanoic acid] has Kd strictly less than 2000 nM class 1

Same question, CC(=O)OCCc1ccccc1 [2-Phenylethyl acetate] this time class 0

Same question, CC(=O)OC/C=C(\C)CCC=C(C)C [geranyl acetate] this time class 1

Same question, CCCCCCCCCCCC(=O)O [Dodecanoic acid] this time class 1

Same question, CC(C)=CCC/C(C)=C/CO [geraniol] this time class 1

Same question, COC(=O)c1ccc(O)cc1 [Methyl p-hydroxybenzoate] this time class 1

Same question, COc1cc(/C=C/CO)ccc1O [Coniferyl alcohol] this time class 0

Same question, CCCCCCCC/C=C\CCCCCCCC(=O)O [oleic acid] this time class 1

Same question, OCc1ccccc1 [Benzyl alcohol] this time class 0

Same question, CCCCCCCCCCCCCCCCCC(=O)OC [Methyl stearate] this time class 1

Same question, CC(C)CCCC(C)CCO (stereo not drawn) [3,7-dimethyloctanol] this time class 1

###

Molecular target: Odorant binding protein 18 (OBP18) (Apis mellifera, UniProt A0ACM8Q9Q2)
Construct: recombinant mature protein
Sequence (A0ACM8Q9Q2 17-135): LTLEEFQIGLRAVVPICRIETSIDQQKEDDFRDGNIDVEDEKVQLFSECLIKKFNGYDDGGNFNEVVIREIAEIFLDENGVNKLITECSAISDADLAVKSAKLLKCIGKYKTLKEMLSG
Assay: biochemical
Settings: IC50 against 2 uM 1-NPN
Experimental: The probe was excited at 337 nm and emission spectra were recorded between 380 and 450 nm. […] For determining binding constants, the intensity values corresponding to the maximum of fluorescence emission were plotted against free ligand concentrations. Bound ligand was evaluated from the values of fluorescence intensity assuming that the protein was 100% active, with a stoichiometry of 1:1 protein:ligand at saturation. The curves were linearized using Scatchard plots. […]
Attribute: IC50
I'd appreciate it if you included the unit after the number.

{"Compound": "CC(=O)CCCCCCCC(=O)O [9-Ketodecanoic acid]", "IC50": "1500 nM"}
{"Compound": "COc1cc(CCO)ccc1O [Homovanillic alcohol]", "IC50": "2700 nM"}
{"Compound": "Cc1ccccc1C=CC=O [2-Methylcinnamaldehyde]", "IC50": "1200 nM"}
{"Compound": "CC(C)CC(=O)O [3-Methylbutanoic acid]", "IC50": "2500 nM"}

Could you share which IC50 value was measured for COc1ccccc1/C=C/C=O [2-Methoxycinnamaldehyde] ? 3800 nM

###

Attribute: pKd
molecular target: Odorant binding protein 18 (OBP18) (Apis mellifera); construct: recombinant mature protein; experiment: biochemical; set-up: competitive fluorescence displacement of 2 uM 1-NPN from purified recombinant OBP (2 uM), Tris pH 7.4; conditions: KD calculated from IC50 of 1-NPN displacement
Give only the number. pKd is defined as minus log10 of concentration in molar units.

{"Compound": "C=CCc1ccc(O)c(OC)c1 [Eugenol]", "pKd": 6.00}
{"Compound": "C=CC(C)(O)CCC=C(C)C (centres unmarked) [Linalool]", "pKd": 5.89}
{"Compound": "CCCCCCCC/C=C\\CCCCCCCC(=O)O [oleic acid]", "pKd": 7.40}
{"Compound": "CC(C)CCCC(C)CCO (centres unmarked) [3,7-dimethyloctanol]", "pKd": 7.00}
{"Compound": "CCCCC/C=C\\C/C=C\\CCCCCCCC(=O)OC [Methyl linoleate]", "pKd": 7.40}

Could you share which pKd value was measured for CC(=O)CC/C=C(\C)CCC=C(C)C [Geranylacetone] ? 6.10

Same question, COc1cc(CCO)ccc1O [Homovanillic alcohol] this time 5.92

Same question, CCCCCCCCCCCCCCCC(=O)OCC [Ethyl palmitate] this time 7.00

Same question, CC(=O)OC/C=C(\C)CCC=C(C)C [geranyl acetate] this time 7.00

Same question, CC(C)=CCC/C(C)=C/C=O [Citral] this time 6.15

###

Attribute: pIC50
biological target: Odorant binding protein 16 (OBP16) (Apis mellifera); construct: recombinant mature protein; assay: biochemical; set-up: competitive fluorescence displacement of 2 uM 1-NPN from purified recombinant OBP (2 uM), Tris pH 7.4; details: IC50 against 2 uM 1-NPN
Give only the number. pIC50 is defined as minus log10 of concentration in molar units.

Could you share which pIC50 value was measured for CC(=O)OC/C=C(\C)CCC=C(C)C [geranyl acetate] ? 6.70

Same question, COc1cc(CC(=O)O)ccc1O this time 4.74

Same question, CCCCCCCCCCCCCCCCCC(=O)OC [Methyl stearate] this time 6.00

Same question, CCCCCCCC/C=C\CCCCCCCC(N)=O [Oleamide] this time 6.00

Same question, CC(C)CC(=O)O this time 4.96

###

target: Odorant binding protein 16 (OBP16) (Apis mellifera, UniProt A0ACM8Q9Q1); construct: recombinant mature protein; test: biochemical; design: competitive fluorescence displacement of 2 uM 1-NPN from purified recombinant OBP (2 uM), Tris pH 7.4; details: KD calculated from IC50 of 1-NPN displacement
Measure name: Kd (nM)
Provide the reading as a plain figure in nM.

Known Kd results, listed for orientation:
{"Compound": "CCCCCCCCC(=O)O [Nonanoic acid]", "Test system": "Odorant binding protein 16 (OBP16) (Apis mellifera, UniProt A0ACM8Q9Q1)", "Kd, nM": 500}
{"Compound": "CC(C)=CCCC(C)CC=O (stereo not drawn) [Citronellal]", "Test system": "Odorant binding protein 16 (OBP16) (Apis mellifera, UniProt A0ACM8Q9Q1)", "Kd, nM": 1600}

Could you share which Kd value was measured for CCCCC/C=C\C/C=C\CCCCCCCC(=O)OC [Methyl linoleate] ? 900

###

Attribute: pKd
Molecular target: OBP21 (Apis mellifera)
Construct: purified recombinant protein
Sequence (A0ACM8Q9Q6 17-135): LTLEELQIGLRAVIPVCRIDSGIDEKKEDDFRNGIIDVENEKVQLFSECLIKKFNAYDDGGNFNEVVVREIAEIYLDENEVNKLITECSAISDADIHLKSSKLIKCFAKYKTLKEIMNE
Assay: biochemical
Set-up: competitive fluorescence displacement of 1-NPN (2 uM) from recombinant OBP, emission 380-450 nm
Method: The probe was excited at 337 nm and emission spectra were recorded between 380 and 450 nm. […] For determining binding constants, the intensity values corresponding to the maximum of fluorescence emission were plotted against free ligand concentrations. Bound ligand was evaluated from the values of fluorescence intensity assuming that the protein was 100% active, with a stoichiometry of 1:1 protein:ligand at saturation. The curves were linearized using Scatchard plots. […]
Give only the number. pKd is defined as minus log10 of concentration in molar units.

{"Compound": "Cc1ccccc1C=CC=O [2-Methylcinnamaldehyde]", "pKd": 4.52}
{"Compound": "CCCCCCCC/C=C\\CCCCCCCC(=O)O [oleic acid]", "pKd": 6.40}
{"Compound": "CC(C)=CCC/C(C)=C/C=O [Citral]", "pKd": 4.57}

Could you share which pKd value was measured for CC(=O)CC/C=C(\C)CCC=C(C)C [Geranylacetone] ? 5.60

Same question, CC(=O)OC/C=C(\C)CCC=C(C)C [geranyl acetate] this time 5.51

Same question, CC(C)CCCC(C)CCO (stereo not drawn) [3,7-dimethyloctanol] this time 5.43

###

Attribute: pKd
Molecular target: Odorant binding protein 16 (OBP16) (Apis mellifera)
Construct: recombinant mature protein
Sequence (A0ACM8Q9Q1 17-135): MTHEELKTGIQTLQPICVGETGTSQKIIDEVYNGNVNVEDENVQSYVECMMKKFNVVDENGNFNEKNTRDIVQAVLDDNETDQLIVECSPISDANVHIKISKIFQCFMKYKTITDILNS
Assay: biochemical
Design: competitive fluorescence displacement of 2 uM 1-NPN from purified recombinant OBP (2 uM), Tris pH 7.4
Conditions: KD calculated from IC50 of 1-NPN displacement
Experimental: The probe was excited at 337 nm and emission spectra were recorded between 380 and 450 nm. […] For determining binding constants, the intensity values corresponding to the maximum of fluorescence emission were plotted against free ligand concentrations. Bound ligand was evaluated from the values of fluorescence intensity assuming that the protein was 100% active, with a stoichiometry of 1:1 protein:ligand at saturation. The curves were linearized using Scatchard plots. […]
Give only the number. pKd is defined as minus log10 of concentration in molar units.

{"Compound": "COc1ccccc1/C=C/C=O", "Measure name": "pKd", "Measured value": 5.04}
{"Compound": "C=CC(C)(O)CCC=C(C)C (stereo not shown)", "Measure name": "pKd", "Measured value": 5.08}
{"Compound": "CCCCCCCCCCCCCCCC(=O)OC [Methyl palmitate]", "Measure name": "pKd", "Measured value": 6.40}
{"Compound": "CCCCCC(C)=O", "Measure name": "pKd", "Measured value": 5.08}
{"Compound": "CC(C)=CCC/C(C)=C/C=O", "Measure name": "pKd", "Measured value": 5.70}
{"Compound": "CCCCCCCCCCCCCCCC(=O)OCC [Ethyl palmitate]", "Measure name": "pKd", "Measured value": 6.30}

Now consider a different compound.
Could you share which pKd value was measured for O=C/C=C/c1ccccc1 ? 5.04
